experiment: recombinant UMI read abundance after kanamycin selection (control-corrected) (log10(CPM+1)); higher = more efficient recombination; extreme values may be limits of the assay; sequences stand for … in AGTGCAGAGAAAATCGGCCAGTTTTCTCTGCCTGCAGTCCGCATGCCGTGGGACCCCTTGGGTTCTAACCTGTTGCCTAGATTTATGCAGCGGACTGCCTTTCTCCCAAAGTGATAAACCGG…AGGTTGGTTTCACT; site = the 11-nt donor;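 also: IS621 bridge recombinase in Escherichia coli cells against a fixed T5 target plasmid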
attribute-measured: recombinant UMI read abundance (log10)

INSERT INTO results (ordered_residues, attribute_measured, value_reported) VALUES
  ('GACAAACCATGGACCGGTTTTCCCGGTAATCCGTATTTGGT (site GACAAGCCTAC)', 'recombinant UMI read abundance (log10)', 0.00399),
  ('TGCTGCTCATGGACCGGTTTTCCCGGTAATCCGTATTTGGT (site TGCTGCTCTAC)', 'recombinant UMI read abundance (log10)', 0.182),
  ('AAGACGACATGGACCGGTTTTCCCGGTAATCCGTATTTGGA (site AAGACGACTTC)', 'recombinant UMI read abundance (log10)', 0.804),
  ('GTTCATACATGGACCGGTTTTCCCGGTAATCCGTATTTGTG (site GTTCATACTCA)', 'recombinant UMI read abundance (log10)', 0.505),
  ('GGTGCAACATGGACCGGTTTTCCCGGTAATCCGTATTTGTA (site GGTGCAACTTA)', 'recombinant UMI read abundance (log10)', 0.221),
  ('AGTAGTGCATGGACCGGTTTTCCCGGTAATCCGTATTTGGT (site ACTAGTGCTAC)', 'recombinant UMI read abundance (log10)', 0.699),
  ('AGTGTAACATGGACCGGTTTTCCCGGTAATCCGTATTTGCT (site AATGTAACTAG)', 'recombinant UMI read abundance (log10)', 1.36),
  ('ATTGTGTCATGGACCGGTTTTCCCGGTAATCCGTATTTGAC (site ACTGTGTCTGT)', 'recombinant UMI read abundance (log10)', 1.41),
  ('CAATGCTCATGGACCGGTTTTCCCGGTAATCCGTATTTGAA (site CAATGATCTTT)', 'recombinant UMI read abundance (log10)', 0.389),
  ('AGCACAGCATGGACCGGTTTTCCCGGTAATCCGTATTTGGG (site AGCCCAGCTCC)', 'recombinant UMI read abundance (log10)', 0.00716),
  ('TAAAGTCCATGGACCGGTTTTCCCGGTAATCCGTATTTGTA (site TAAAGACCTTA)', 'recombinant UMI read abundance (log10)', 0.00959),
  ('GTTAGAGCATGGACCGGTTTTCCCGGTAATCCGTATTTGGC (site GTTAGAACTGC)', 'recombinant UMI read abundance (log10)', 2.02),
  ('TAATGTCCATGGACCGGTTTTCCCGGTAATCCGTATTTGTA (site TAAGGTCCTTA)', 'recombinant UMI read abundance (log10)', 0.586),
  ('CAGTGGACATGGACCGGTTTTCCCGGTAATCCGTATTTGTG (site CAGTGGACTCA)', 'recombinant UMI read abundance (log10)', 1.57),
  ('CGTAATCCATGGACCGGTTTTCCCGGTAATCCGTATTTGTT (site CGCAATCCTAA)', 'recombinant UMI read abundance (log10)', 0),
  ('ATAGATACATGGACCGGTTTTCCCGGTAATCCGTATTTGCC (site ATAGATACTGG)', 'recombinant UMI read abundance (log10)', 2.54),
  ('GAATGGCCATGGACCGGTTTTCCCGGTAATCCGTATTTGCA (site GAGTGGCCTTG)', 'recombinant UMI read abundance (log10)', 0),
  ('GTTCGAGCATGGACCGGTTTTCCCGGTAATCCGTATTTGGA (site GTTCGAGCTTC)', 'recombinant UMI read abundance (log10)', 0.499);
